The measurements presented in this section are drawn from PubChem BioAssay (NCI).

Test system: U251 CNS
Experiment: NCI tumour cell line growth inhibition, 48 h
molecules and their reported TGI

For orientation, consider the following solved cases.
{"molecule": "C#CC1(O)CCC2[C@@H]3CCc4cc(Oc5nc(F)nc(-c6c7ccccc7c(SCC)n6CCC)n5)ccc4C3CC[C@@]21C (stereo not given in full)", "experimental_system": "U251 CNS", "TGI": "> 100 µM"}
{"molecule": "O=C(C/C(=N/O)C(F)(F)F)c1cccs1", "experimental_system": "U251 CNS", "TGI": "> 100 µM"}
{"molecule": "O=P(Nc1ccccc1)(Oc1ccccc1)N(CCCl)CCCl (stereo not given)", "experimental_system": "U251 CNS", "TGI": "> 100 µM"}
{"molecule": "COc1ccc2c(c1)NC1(O)c3ccccc3C(=O)C21O (stereo not given)", "experimental_system": "U251 CNS", "TGI": "> 100 µM"}

Now, please, on to the next molecule.
Enquiry: Any idea what TGI was measured for `O=C(c1ccccc1)c1c(C(F)(F)F)n([O-])c2cc(C(F)(F)F)ccc2[n+]1=O` ?
Return: 2.97 µM

====

System: OVCAR-8 ovarian
Test: NCI tumour cell line growth inhibition, 48 h
Measured TGI, listed per entry for reference.
State the answer as a number, implicitly in µM.

{"compound": "CCCCc1c2cnccc2c(CCCC)c2c1[nH]c1ccccc12", "measure_name": "TGI", "readout_number": 31.1}
{"compound": "CCCCCCCCCCCCCCCCCCNC(=S)/N=C/c1c(O)c2ccccc2[nH]c1=O", "measure_name": "TGI", "readout_number": 29.6}
{"compound": "C=CCOC(=O)N1c2ccc(O)cc2[C@@]23O[C@@]24[C@@H]1C#C/C=C\\C#C[C@]3(O)C(OC)(OC)C[C@@H]4C", "measure_name": "TGI", "readout_number": 85.5}
{"compound": "O=C(C#Cc1ccccc1)C1=Cc2ccccc2OC1", "measure_name": "TGI", "readout_number": 5.85}
{"compound": "C=C1C(=O)O[C@H]2[C@H]1CC/C(COC(=O)OC/C1=C/CC[C@@]3(C)O[C@H]3[C@H]3OC(=O)[C@@H](CN(C)C)[C@@H]3CC1)=C\\CC[C@@]1(C)O[C@@H]21", "measure_name": "TGI", "readout_number": 10.2}
{"compound": "COC1=C(C)C(=O)C2=C(C1=O)C1C3CC4=C(C(=O)C(OC)=C(C)C4=O)C(CNC(=O)C(C)O)N3C(C#N)C(C2)N1C (stereo not given)", "measure_name": "TGI", "readout_number": 1.32}

Enquiry: Enter reported TGI observed with OVCAR-8 ovarian for `Cc1ccc2c(c1)C(=O)c1c-2c(OCCCN(C)C)nc2ccccc12`
Return: 17

Enquiry: Form field: TGI recorded for `CC(C)C(=O)c1c(C(F)(F)F)n([O-])c2cc(F)c(F)cc2[n+]1=O` with OVCAR-8 ovarian (enter value)
Return: 0.85

Enquiry: Recorded TGI for `O=c1oc2cc(OC/C(=N/O)c3ccc(F)cc3)ccc2c2ccccc12` with OVCAR-8 ovarian, please?
Return: 43.6

====

System: HOP-62 NSCLC
Test: NCI tumour cell line growth inhibition, 48 h
Reported TGI values for the following compounds.
Note: unit µM is implicit; provide only the numeric part.

{"compound": "O=CN1N=C(c2cccc(Nc3ccnc4cc(Cl)ccc34)c2)CC1c1ccccc1 (stereo not given)", "u": "µM", "TGI": 17.3}
{"compound": "C[n+]1c2ccccc2nc2ccccc21", "u": "µM", "TGI": 10.7}
{"compound": "CC(C)C(=O)c1c(C(F)(F)F)n([O-])c2cc(F)c(F)cc2[n+]1=O", "u": "µM", "TGI": 0.602}
{"compound": "CN(CCCNC(=O)c1nn(C)c2c1Cc1ccccc1-2)CCCNC(=O)c1nn(C)c2c1Cc1ccccc1-2", "u": "µM", "TGI": 26.8}
{"compound": "COc1cc(Cc2cnc(N)nc2N)cc(OC)c1OCCCNc1ccc([N+](=O)[O-])cc1", "u": "µM", "TGI": 27.4}

Enquiry: Entry O=C(CN1CCCCC1)Nc1ccc2c(c1)C1Oc3ccccc3CC1CO2 (stereo not given) has what TGI?
Return: 34.1

Enquiry: Param item = `C[C@H]1COCCN1c1cc(C2(S(=O)(=O)C3CC3)CC2)nc(-c2ccc(NC(=S)NCCO)cc2)n1` ; retrieve measured TGI.
Return: 4.37
